Data origin, for the record: paper PMC9601775

Reported kon values are given for each entry in this list.
target: T1, extracellular domain of epidermal growth factor receptor (EGFR), residues 1–618 (Homo sapiens (; human EGFR in …, UniProt P00533); test: SPR; Biacore 8K; EGFR extracellular domain immobilised on CM5 chip by amine coupling (~1000 RU); VHHs injected in two-fold serial dilutions at 30 μl/min; 25°C; PBS with 0.005% Tween20; conditions: both partners purified
T1 construct: Epidermal growth factor receptor (EGFR), extracellular domain, residues 1-618; also called extracellular domain of EGFR; source: Sf9 expression system (baculovirus), purified from the culture supernatant (Ni-NTA, SEC)
Please respond with the number in M⁻¹ s⁻¹ and leave the unit unwritten.

Lookup: Which kon value is on record for 7D12‐Vob Y42F (VHH, PDB 7XL1) with the stated change; IMGT numbering; source: E. coli BL21(DE3), periplasmic fraction, purified (Ni-NTA, SEC)) VHH: EVQLVESGGGLVQPGGSLRLSCAASGRTSRSYGMGWFRQAPGKGRELVAGISWRGDSTGYADSVKGRFTISRDNAKNTLYLQMNSLRPEDTAVYYCAFAAGSAWYGTLYEYDYWGQGTLVTVSS ?
Found: 713000

Lookup: So what does the record say about kon for 7D12‐Vob Y42F‐L52F‐F106A (VHH, PDB 7XL1) with the stated changes; IMGT numbering; also called triple mutant; source: E. coli BL21(DE3), periplasmic fraction, purified (Ni-NTA, SEC)) VHH: EVQLVESGGGLVQPGGSLRLSCAASGRTSRSYGMGWFRQAPGKGREFVAGISWRGDSTGYADSVKGRFTISRDNAKNTLYLQMNSLRPEDTAVYYCAAAAGSAWYGTLYEYDYWGQGTLVTVSS ?
Found: 1.82e+06

Lookup: Tell me the measured kon of 7D12‐Vob L52F (VHH, PDB 7XL1) with the stated change; IMGT numbering; source: E. coli BL21(DE3), periplasmic fraction, purified (Ni-NTA, SEC)) VHH: EVQLVESGGGLVQPGGSLRLSCAASGRTSRSYGMGWYRQAPGKGREFVAGISWRGDSTGYADSVKGRFTISRDNAKNTLYLQMNSLRPEDTAVYYCAFAAGSAWYGTLYEYDYWGQGTLVTVSS , please.
Found: 344000

Lookup: Return reported kon; argument: 7D12‐Vob Y42F‐L52F (VHH, PDB 7XL1) with the stated changes; IMGT numbering; source: E. coli BL21(DE3), periplasmic fraction, purified (Ni-NTA, SEC)) VHH: EVQLVESGGGLVQPGGSLRLSCAASGRTSRSYGMGWFRQAPGKGREFVAGISWRGDSTGYADSVKGRFTISRDNAKNTLYLQMNSLRPEDTAVYYCAFAAGSAWYGTLYEYDYWGQGTLVTVSS
Found: 729000

Lookup: Recorded kon of 7D12‐Vob F106A (VHH, PDB 7XL1) with the stated change; IMGT numbering; source: E. coli BL21(DE3), periplasmic fraction, purified (Ni-NTA, SEC)) VHH: EVQLVESGGGLVQPGGSLRLSCAASGRTSRSYGMGWYRQAPGKGRELVAGISWRGDSTGYADSVKGRFTISRDNAKNTLYLQMNSLRPEDTAVYYCAAAAGSAWYGTLYEYDYWGQGTLVTVSS , please.
Found: 316000
